Data provenance is patent US6914045B2.

Test system: Enterococcus sp.
Assay: in vitro antibacterial evaluation, MIC by broth dilution
Format: cell-based
Test Settings: Enterococcus avium (GC 4558); broth dilution, 18 hours at 35° C.
From the text: Methods for in vitro Antibacterial Evaluation (Table 1) […]
Here, each record is paired with measured MIC Enterococcus avium (GC 4558) data.
Enter your answer as a number in mg/L; do not include the unit.

CC(C)CC(=O)OC1C(OC2C(CO)OC(Oc3ccc(CC4NC(=O)C(C(C)c5ccc(F)cc5)NC(=O)CNC(=O)C(CO)NC(=O)C(C(O)C5CNC(=N)N5C5OC(CO)C(O)C(O)C5O)NC(=O)C(C(O)C5CNC(=N)N5)NC4=O)cc3)C(O)C2O)OC(CO)C(O)C1O (centres unmarked) [Example 261b] = 64

Next, consider the following molecule.
Ask: Report MIC Enterococcus avium (GC 4558) for CCCCCCCN1CC(C(O)C2NC(=O)C(C(O)C3CNC(=N)N3)NC(=O)C(Cc3ccc(OC4OC(CO)C(OC5OC6COC7(OC6C(O)C5O)C5CC6CC(C5)CC7C6)C(O)C4O)cc3)NC(=O)C(C(C)c3ccccc3)NC(=O)CNC(=O)C(CO)NC2=O)N(C2OC(CO)C(O)C(O)C2O)C1=N (centres unmarked) please.
Reply: 2

====

Here, each record is paired with measured MIC Enterococcus faecium (GC 4557) data.
Tested on: Enterococcus sp.
Assay: in vitro antibacterial evaluation, MIC by broth dilution
Type: cell-based
Test Settings: strain GC 4557; broth dilution, 18 hours at 35° C.

Some molecules with known MIC Enterococcus faecium (GC 4557) results, for comparison:
CC(c1ccccc1)C1NC(=O)CNC(=O)C(CO)NC(=O)C(C(O)C2CNC(=N)N2C2OC(CO)C(O)C(O)C2O)NC(=O)C(C(O)C2CNC(=N)N2)NC(=O)C(Cc2ccc(OC3OC(CO)C(OC4OC5COC(c6ccc(C(C)(C)C)cc6)OC5C(O)C4O)C(O)C3O)cc2)NC1=O (stereo not drawn) = 1 to 2 µg/mL
CC(c1ccccc1)C1NC(=O)CNC(=O)C(CO)NC(=O)C(C(O)C2CNC(=N)N2C2OC(CO)C(O)C(O)C2O)NC(=O)C(C(O)C2CNC(=N)N2)NC(=O)C(Cc2ccc(OC3OC(CO)C(OC4OC5COC(c6ccc(-c7cccs7)cc6)OC5C(O)C4O)C(O)C3O)cc2)NC1=O (stereo not drawn) = 8 µg/mL
CC(C1CCCCC1)C1NC(=O)CNC(=O)C(CO)NC(=O)C(C(O)C2CNC(=N)N2C2OC(CO)C(O)C(O)C2O)NC(=O)C(C(O)C2CNC(=N)N2)NC(=O)C(C[C@H]2CC[C@@H](O)CC2)NC1=O (stereo partly drawn) = 128 µg/mL

Ask: Report MIC Enterococcus faecium (GC 4557) for CC(c1ccccc1)C1NC(=O)CNC(=O)C(CO)NC(=O)C(C(O)C2CNC(=N)N2C2OC(CO)C(O)C(O)C2O)NC(=O)C(C(O)C2CNC(=N)N2)NC(=O)C(Cc2ccc(OC3OC(CO)C(OC4OC5COC(c6cccc(OCc7ccc([N+](=O)[O-])cc7)c6)OC5C(O)C4O)C(O)C3O)cc2)NC1=O (stereo not drawn) please.
Reply: >64 µg/mL

Ask: Report MIC Enterococcus faecium (GC 4557) for CC(c1ccccc1)C1NC(=O)CNC(=O)C(CO)NC(=O)C(CC2CNC(=N)N2C2OC(CO)C(O)C(O)C2O)NC(=O)C(CC2CNC(=N)N2)NC(=O)C(Cc2ccc3oc(-c4ccc5c(c4)Cc4ccccc4-5)nc3c2)NC1=O (stereo not drawn) please.
Reply: 2 µg/mL

Ask: Report MIC Enterococcus faecium (GC 4557) for CSc1ccc(C2OCC3OC(OC4C(CO)OC(Oc5ccc(CC6NC(=O)C(C(C)c7ccccc7)NC(=O)CNC(=O)C(CO)NC(=O)C(C(O)C7CNC(=N)N7C7OC(CO)C(O)C(O)C7O)NC(=O)C(C(O)C7CNC(=N)N7)NC6=O)cc5)C(O)C4O)C(O)C(O)C3O2)cc1 (stereo not drawn) please.
Reply: 2 µg/mL

Ask: Report MIC Enterococcus faecium (GC 4557) for CC(c1ccccc1)C1NC(=O)CNC(=O)C(CO)NC(=O)C(C(O)C2CNC(=N)N2C2OC(CO)C(O)C(O)C2O)NC(=O)C(C(O)C2CNC(=N)N2)NC(=O)C(Cc2ccc3oc(-c4cccc([N+](=O)[O-])c4)nc3c2)NC1=O (stereo not drawn) please.
Reply: 8 µg/mL

Ask: Report MIC Enterococcus faecium (GC 4557) for CC(C)=CCCC(C)=CCOc1ccc(C2OCC3OC(OC4C(CO)OC(Oc5ccc(CC6NC(=O)C(C(C)c7ccccc7)NC(=O)CNC(=O)C(CO)NC(=O)C(C(O)C7CNC(=N)N7C7OC(CO)C(O)C(O)C7O)NC(=O)C(C(O)C7CNC(=N)N7)NC6=O)cc5)C(O)C4O)C(O)C(O)C3O2)cc1 (stereo not drawn) please.
Reply: 4 µg/mL

====

Test system: Enterococcus sp.
Assay: in vitro antibacterial evaluation, MIC by broth dilution
Format: cell-based
Test Settings: Enterococcus faecalis (GC 4553); broth dilution, 18 hours at 35° C.
Square brackets hold non-standard residues; d marks the D form. Peptide text beside a SMILES is read from it. * marks the point of attachment. ξ: configuration not given here. ξEnduracididine(βξ-OH,4'ξ) = N=C1NCC(C(O)C(N)C(=O)O)N1; X2 = OCC1OC(OC2C(CO)OC(*)C(O)C2O)C(O)C(O)C1O
Quantity Measured: MIC Enterococcus faecalis (GC 4553)

CC(C)CC(=O)OC1C(OC2C(CO)OC(Oc3ccc(CC4NC(=O)C(C(C)c5ccc(F)cc5)NC(=O)CNC(=O)C(CO)NC(=O)C(C(O)C5CNC(=N)N5C5OC(CO)C(O)C(O)C5O)NC(=O)C(C(O)C5CNC(=N)N5)NC4=O)cc3)C(O)C2O)OC(CO)C(O)C1O (stereo not shown) [Example 261b] = 64 µg/mL

Ask: Report MIC Enterococcus faecalis (GC 4553) for CC(C1CCCCC1)C1NC(=O)CNC(=O)C(CO)NC(=O)C(C(O)C2CNC(=N)N2C2OC(CO)C(O)C(O)C2O)NC(=O)C(C(O)C2CNC(=N)N2)NC(=O)C(C[C@H]2CC[C@@H](O)CC2)NC1=O (stereo partly shown) please.
Reply: >128 µg/mL

Ask: Report MIC Enterococcus faecalis (GC 4553) for N=C1NCC(C(O)C2NC(=O)C(Cc3ccc(OC4OC(CO)C(OC5OC(CO)C(O)C(O)C5O)C(O)C4O)cc3)NC(=O)C(Cc3ccccc3)NC(=O)CNC(=O)C(CO)NC(=O)C(C(O)C3CNC(=N)N3)NC2=O)N1 (stereo not drawn) [Example 296] (cyclo(GFY(X2)[ξEnduracididine(βξ-OH,4'ξ)][ξEnduracididine(βξ-OH,4'ξ)]S); configuration not given here) please.
Reply: >128 µg/mL

Ask: Report MIC Enterococcus faecalis (GC 4553) for CC(C)=CCCC1OCC2OC(OC3C(CO)OC(Oc4ccc(CC5NC(=O)C(C(C)c6ccccc6)NC(=O)CNC(=O)C(CO)NC(=O)C(C(O)C6CNC(=N)N6C6OC(CO)C(O)C(O)C6O)NC(=O)C(C(O)C6CNC(=N)N6)NC5=O)cc4)C(O)C3O)C(O)C(O)C2O1 (stereo not shown) please.
Reply: 16 µg/mL

====

Test system: Staphylococcus sp.
Assay: in vitro antibacterial evaluation, MIC by broth dilution
Assay type: cell-based
Test Settings: broth dilution, 18 hours at 35° C.
Numbered stars: 1 amine (or outer) side, 2 acyl side, 3 side chain; on linkers, the order of the positions; unused ones are H or OH. Square brackets hold non-standard residues; d marks the D form. Peptide text beside a SMILES is read from it. * marks the point of attachment. ξ: configuration not given here. X1 = N=C1NCC(C(O)C(N[*:1])C(=O)[*:2])N1C1OC(CO)C(O)C(O)C1O; ξEnduracididine(βξ-OH,4'ξ) = N=C1NCC(C(O)C(N)C(=O)O)N1; X2 = OCC1OC(OC2C(CO)OC(*)C(O)C2O)C(O)C(O)C1O; Diphenylacetyl = O=C(C(c1ccccc1)c1ccccc1)*; ξPhe(βξ-Me) = CC(c1ccccc1)C(N)C(=O)O
Quantity Measured: MIC Coagulase Negative Staphylococcus (GC 4551)

Some compounds with known MIC Coagulase Negative Staphylococcus (GC 4551) results, for comparison:
CC(c1ccccc1)C1NC(=O)CNC(=O)C(CO)NC(=O)C(C(O)C2CNC(=N)N2C2OC(CO)C(O)C(O)C2O)NC(=O)C(C(O)C2CNC(=N)N2)NC(=O)C(Cc2ccc(OC3OC(CO)C(OC4OC(CO)C(O)C(O)C4OCc4ccc(OCc5ccccc5)cc4)C(O)C3O)cc2)NC1=O (stereo not drawn) [Example 231b] = 8 to 32 mg/L
CC(c1ccccc1)C1NC(=O)CNC(=O)C(COC(=O)C(c2ccccc2)c2ccccc2)NC(=O)C(C(O)C2CNC(=N)N2C2OC(CO)C(O)C(O)C2O)NC(=O)C(C(O)C2CNC(=N)N2)NC(=O)C(Cc2ccc(OC3OC(CO)C(OC4OC(CO)C(O)C(O)C4O)C(O)C3O)cc2)NC1=O (stereo not drawn) [Example 96a] (cyclo(G[ξPhe(βξ-Me)]Y(X2)[ξEnduracididine(βξ-OH,4'ξ)][X1]S(Diphenylacetyl)); configuration not given here) = 128 mg/L

Next, consider the following compound.
Ask: Report MIC Coagulase Negative Staphylococcus (GC 4551) for CC(C)CC1OCC2OC(OC3C(CO)OC(Oc4ccc(CC5NC(=O)C(C(C)c6ccccc6)NC(=O)CNC(=O)C(CO)NC(=O)C(C(O)C6CNC(=N)N6C6OC(CO)C(O)C(O)C6O)NC(=O)C(C(O)C6CNC(=N)N6)NC5=O)cc4)C(O)C3O)C(O)C(O)C2O1 (stereo not drawn) please.
Reply: 1 mg/L
